pIC50: −log10 of the molar value.
Header: pIC50 / Cytosolic phospholipase A2 (Homo sapiens) / multiple publications
Decide by pIC50: equal to or exceeding 6 means label 1, less means label 0.

| Molecular string | Assigned label |
| --- | --- |
| O=C(O)c1ccc(OCCc2c(CCNS(=O)(=O)C(F)(F)F)n(C(c3ccccc3)c3ccccc3)c3ccc(Cl)cc23)cc1 | label 0 |

# bool: pIC50 of `O=C1NC(=O)/C(=C/c2ccc(C(=O)NC[C@@H]3C[C@@H](OCc4ccccc4I)CN3C(=O)c3ccccc3C(=O)c3ccc(F)cc3)cc2)S1` >= 6
label 1

# bool: pIC50 of `O=C1NC(=O)/C(=C/c2ccc(C(=O)NC[C@@H]3C[C@@H](OCc4ccccc4-c4cc5ccccc5o4)CN3C(=O)c3ccccc3C(=O)c3ccc(F)cc3)cc2)S1` >= 6
label 1

# bool: pIC50 of `COc1ccc(S(=O)(=O)NCCc2c(CCCc3ccc(C(=O)O)cc3)c3cc(Cl)ccc3n2C(c2ccccc2)c2ccccc2)c([N+](=O)[O-])c1` >= 6
label 1

# bool: pIC50 of `O=C1NC(=O)/C(=C/c2ccc(C(=O)NC[C@H]3C[C@H](OCc4ccccc4-c4ccccc4)CN3C(=O)c3ccccc3C(=O)c3ccc(F)cc3)cc2)S1` >= 6
label 0
